Values compiled from ChEMBL document CHEMBL1201862.

- System: DU-145
- Assay Comment: NCI tumour cell line growth inhibition, 48 h
Calls of active or inactive are those of the source. No stated cut-off is given here; in the data, active = GI50 up to about 1.1 µM and inactive = higher.
In this exercise, the only acceptable responses are 1 = active, 0 = inactive

Example entries and their recorded answers appear below.
{"Compound": "Cc1ccc2c(c1)C(C(=O)N[C@@H]1C(=O)N3[C@@H]1SC(C)(C)[C@@H]3C(=O)O)OCCC2 (some centres undefined)", "Category": 0}
{"Compound": "CC1OC(NCCNCCNC2OC(C)C(O)C(O)C2O)C(O)C(O)C1O (centres undefined)", "Category": 0}
{"Compound": "COC1=CC2C(c3cc4ccccc4n3S(=O)(=O)c3ccccc3)CC1CN2C(=O)OCc1ccccc1 (centres undefined)", "Category": 0}
{"Compound": "CC1(C)Cc2c(cnn2-c2ccc(C(F)(F)F)cc2)-c2[nH]c(-c3ccc(O)cc3)nc21", "Category": 0}

Please state the recorded outcome for this compound: O=C(O)C1C2C=CC(O2)C1C(=O)Nc1ccccc1 (centres undefined)
0

Please state the recorded outcome for this compound: O=C(NCCSSCCNC(=O)/C(Cc1ccc(O)c(Br)c1)=N/O)/C(Cc1ccc(O)c(Br)c1)=N/O [PSAMMAPLIN A]
0

====

- Test system: PC-3
- Assay Comment: NCI tumour cell line growth inhibition, 48 h
Calls of active or inactive are those of the source. No stated cut-off is given here; in the data, active = GI50 up to about 1.1 µM and inactive = higher.
In this exercise, the only acceptable responses are TRUE (active), FALSE (inactive)

Example entries and their recorded answers appear below.
{"Compound": "COc1cc2c3c(c4ccc(O)cc4c2cc1OC)[C@@H](O)[C@@H]1CCCN1C3", "Category": "TRUE"}
{"Compound": "Cc1ccc(OCC2OC(n3cnc4c(Cl)nc(Nc5cc(Cl)cc(Cl)c5)nc43)CC2Oc2ccc(C)cc2)cc1 (stereo not given)", "Category": "FALSE"}
{"Compound": "CC(=O)Oc1ccc(C2SCc3nc4ccccc4n32)cc1 (stereo not given)", "Category": "FALSE"}
{"Compound": "CN(C)c1cccc2c(S(=O)(=O)NCCCNCCN)cccc12", "Category": "FALSE"}

Please state the recorded outcome for this compound: O=C(O)C1C2C=CC(O2)C1C(=O)Nc1ccccc1 (stereo not given)
FALSE

====

- Tested on: MCF7
- Assay Comment: NCI tumour cell line growth inhibition, 48 h
Calls of active or inactive are those of the source. Cut-off read from the data, not from the text of the source: active = GI50 up to about 1.1 µM and inactive = higher.
Experimental Endpoint: GI50

A selection of reference data follows.
{"Compound": "CNC1=CC(=O)C2=C(C1=O)[C@H]1CC[C@]3(C)C(=O)CC[C@H]3[C@@H]1CC2", "Target Desc": "MCF7", "GI50": "20.2 µM (inactive)"}
{"Compound": "O=C(O)c1ccc(Nc2cnc3cc(C(F)(F)F)ccc3n2)cc1", "Target Desc": "MCF7", "GI50": "38 µM (inactive)"}
{"Compound": "COc1ccc(-c2cc(O)c3c(C)cc(C)nc3n2)cc1", "Target Desc": "MCF7", "GI50": "15.3 µM (inactive)"}

Query (compound): CCOC(=O)c1c(NC(=O)c2cccs2)sc2c1CCC2 ; field requested: GI50
> 100 µM (inactive)

Query (compound): O=C1c2cccnc2S(=O)(=O)N1c1ccc([N+](=O)[O-])cc1 ; field requested: GI50
> 100 µM (inactive)

Query (compound): Cc1ccc(OCC2OC(n3cnc4c(Cl)nc(Nc5cc(Cl)cc(Cl)c5)nc43)CC2Oc2ccc(C)cc2)cc1 (stereo not given) ; field requested: GI50
> 100 µM (inactive)

Query (compound): O=C(Nc1nc2ccc([N+](=O)[O-])cc2[n+]([O-])n1)C(F)(F)F ; field requested: GI50
20 µM (inactive)

Query (compound): S=P(N1CC1)(N1CC1)N1CC1 ; field requested: GI50
30.7 µM (inactive)

Query (compound): Cc1ccc(/N=C2\SC(=S)N(CCC[N+](C)(C)C)\C2=N/c2ccc(C)cc2)cc1 ; field requested: GI50
21.6 µM (inactive)

Query (compound): CCOC(=O)c1nnn(CCCCO)c1C(=O)OCC ; field requested: GI50
> 100 µM (inactive)

====

Below, each of the compounds is paired with its reported GI50 value.
- Test system: KM12
- Assay Comment: NCI tumour cell line growth inhibition, 48 h
Calls of active or inactive are those of the source. No stated cut-off is given here; in the data, active = GI50 up to about 1.1 µM and inactive = higher.

A selection of reference data follows.
{"Compound": "COC1=CC2C(c3cc4ccccc4n3S(=O)(=O)c3ccccc3)CC1CN2C(=O)OCc1ccccc1 (configuration not stated)", "Target Desc": "KM12", "Data Value": "26.9 µM (inactive)"}
{"Compound": "CC(C)CCC[C@@H](C)[C@H]1CC[C@H]2[C@@H]3CC[C@H]4C[C@@H](CCC=C(c5cc(Cl)c(O)c(C(=O)O)c5)c5cc(Cl)c(O)c(C(=O)O)c5)CC[C@]4(C)[C@H]3CC[C@]12C", "Target Desc": "KM12", "Data Value": "> 100 µM (inactive)"}
{"Compound": "Cc1cc2nc3c(C#N)c(C)c(CCCl)c(Cl)n3c2cc1C", "Target Desc": "KM12", "Data Value": "6.1 µM (inactive)"}
{"Compound": "CSc1nc(NC2OCC(OC(C)=O)C(OC(C)=O)C2OC(C)=O)c(/N=C(\\C)C(C)=O)c(=O)n1C (configuration not stated)", "Target Desc": "KM12", "Data Value": "> 100 µM (inactive)"}
{"Compound": "COc1ccc(/C=C2\\C[C@H]3[C@@H]4CCC5=C[C@@H](N6CCCC6)CC[C@]5(C)[C@H]4CC[C@]3(C)[C@H]2O)cc1", "Target Desc": "KM12", "Data Value": "2.34 µM (inactive)"}
{"Compound": "Cc1cc(S(=O)(=O)Nc2nc(N)n(C)n2)c(S)cc1Cl", "Target Desc": "KM12", "Data Value": "> 10 µM (inactive)"}

Now, please, on to the next compound.
Query (compound): C/C=C(/C)C(=O)O[C@H](C[C@@H](C)[C@H]1CC(c2ccoc2)OC1=O)[C@@]1(C)C(=O)CCC2O[C@]21C (some centres not stated) ; field requested: GI50
> 100 µM (inactive)

====

- Tested on: RPMI-8226
- Assay Comment: NCI tumour cell line growth inhibition, 48 h
Activity calls are given as the source filed them. Rule as the data show it: active = GI50 up to about 1.1 µM and inactive = higher.
In this exercise, the only acceptable responses are active, inactive

Example entries and their recorded answers appear below.
{"Compound": "COc1cc2c3c(c4ccc(O)cc4c2cc1OC)[C@@H](O)[C@@H]1CCCN1C3", "Category": "active"}
{"Compound": "CCc1nc2ccccc2c(=O)n1/N=C(\\N=N\\c1ccc(Cl)cc1)c1ccccc1", "Category": "inactive"}
{"Compound": "O=c1[nH]c(C2CCCCC2)nc2cc(Cl)ccc12", "Category": "inactive"}
{"Compound": "Cc1cn(CCCCCOC(=O)NC(CCCNC(N)=O)C(=O)O)c(=O)[nH]c1=O (stereo not drawn)", "Category": "inactive"}
{"Compound": "CCCc1nn(C)c(CCC(=O)N(Cc2ccccc2)Cc2ccccc2)c1CC", "Category": "inactive"}

Please state the recorded outcome for this compound: CC1OC(NCCNCCNC2OC(C)C(O)C(O)C2O)C(O)C(O)C1O (stereo not drawn)
inactive

Please state the recorded outcome for this compound: CC(C(=O)O)C1Nc2ccccc2NC1=O (stereo not drawn)
inactive

Please state the recorded outcome for this compound: O=S1(=O)C(c2ccccc2)C(N2CCCCC2)C1C1CC2c3ccccc3C1c1ccccc12 (stereo not drawn)
inactive

====

- Tested on: K562
- Assay Comment: NCI tumour cell line growth inhibition, 48 h
Active and inactive are the calls of the source. No stated cut-off is given here; in the data, active = GI50 up to about 1.1 µM and inactive = higher.
Below, each of the molecules is paired with its reported GI50 value.

A selection of reference data follows.
{"Molecule": "COc1ccc(C2N3CCCCC3[C@@H]3c4[nH]c5ccccc5c4CCN23)c(OC)c1 (stereo not given in full)", "GI50": "26.7 µM (inactive)"}
{"Molecule": "C=C[C@H]1CN2CC[C@H]1C[C@@H]2[C@@H](O)c1ccnc2ccccc12", "GI50": "55.2 µM (inactive)"}
{"Molecule": "Nc1nn2c(=O)c3ccccc3nc2s1", "GI50": "28.4 µM (inactive)"}
{"Molecule": "C[C@H](OCc1ccccc1)C(=O)N1CCS(=O)(=O)N2CCC[C@H]2C1=O", "GI50": "> 100 µM (inactive)"}
{"Molecule": "CC1(C)OC([C@H](O)CO)C([C@H]2NCCS2)O1 (stereo not given in full)", "GI50": "> 100 µM (inactive)"}
{"Molecule": "O=C(/C=C(\\O)C(=O)O)/C=C(\\O)c1ccccc1Cl", "GI50": "> 100 µM (inactive)"}
{"Molecule": "C/C=C(/C)C(=O)O[C@H](C[C@@H](C)[C@H]1CC(c2ccoc2)OC1=O)[C@@]1(C)C(=O)CCC2O[C@]21C (stereo not given in full)", "GI50": "> 100 µM (inactive)"}
{"Molecule": "CC(=O)Nc1ccccc1-c1nc2ccccc2nc1C", "GI50": "> 100 µM (inactive)"}
{"Molecule": "Cc1cc2nc3c(C#N)c(C)c(CCCl)c(Cl)n3c2cc1C", "GI50": "2.39 µM (inactive)"}

Now, please, on to the next molecule.
Lab note: need GI50 for O=C(/C=C/c1ccco1)c1cccc(C(=O)/C=C/c2ccco2)n1 on K562, anyone have it?
2.91 µM (inactive)
